- Test system: H4
- experimentNotes: Luminescence Cell-Based Dose Response HTS to Identify Activators of 5'UTR Stem-Loop Driven Prion Protein mRNA Translation in H4 Neuroglioblastoma Cells. [Related pubchem assays: 1829 (Project Summary), 1814 (Primary HTS)]
- Format: functional
- assayContext: Homo sapiens
The source made the active and inactive calls.
quantity: EC50

Cc1cccc(Nc2nnc(SCC3CCCCO3)s2)c1 (configuration not stated) ... 21.8 µM (active)

Exercise: Fill in the blank: the reported EC50 of COc1ccc(/C=N/Nc2nc(Nc3ccccc3)nc(N3CCCCC3)n2)cc1OC is ____.
Solution: 23.1 µM (active)

Exercise: Queued: Oc1ccc(/C=N/Nc2cccc3cccnc23)c(O)c1
Solution: 18.7 µM (active)

Exercise: Same for O=C1c2ccccc2NC(c2ccccc2O)N1NS(=O)(=O)c1ccccc1 (configuration not stated)
Solution: > 120 µM (not active)

Exercise: Next: CCOc1ccc(N/C(S)=N/CCCn2ccnc2)cc1
Solution: > 120 µM (not active)

Exercise: Try this compound too: CSc1ccc(CC(=O)N2CCC(n3nccc3NC(=O)C3CC3)CC2)cc1
Solution: > 120 µM (not active)

Exercise: Also CCOC(=O)C1=C(CSc2nc(-c3ccccc3)ccc2C#N)OC(N)=C(C#N)C1c1ccc(OC)cc1 (configuration not stated) , if possible.
Solution: 13.3 µM (active)

----------
- testTarget: Hexokinase HKDC1 (Homo sapiens)
- Sequence (Q2TB90 whole entry): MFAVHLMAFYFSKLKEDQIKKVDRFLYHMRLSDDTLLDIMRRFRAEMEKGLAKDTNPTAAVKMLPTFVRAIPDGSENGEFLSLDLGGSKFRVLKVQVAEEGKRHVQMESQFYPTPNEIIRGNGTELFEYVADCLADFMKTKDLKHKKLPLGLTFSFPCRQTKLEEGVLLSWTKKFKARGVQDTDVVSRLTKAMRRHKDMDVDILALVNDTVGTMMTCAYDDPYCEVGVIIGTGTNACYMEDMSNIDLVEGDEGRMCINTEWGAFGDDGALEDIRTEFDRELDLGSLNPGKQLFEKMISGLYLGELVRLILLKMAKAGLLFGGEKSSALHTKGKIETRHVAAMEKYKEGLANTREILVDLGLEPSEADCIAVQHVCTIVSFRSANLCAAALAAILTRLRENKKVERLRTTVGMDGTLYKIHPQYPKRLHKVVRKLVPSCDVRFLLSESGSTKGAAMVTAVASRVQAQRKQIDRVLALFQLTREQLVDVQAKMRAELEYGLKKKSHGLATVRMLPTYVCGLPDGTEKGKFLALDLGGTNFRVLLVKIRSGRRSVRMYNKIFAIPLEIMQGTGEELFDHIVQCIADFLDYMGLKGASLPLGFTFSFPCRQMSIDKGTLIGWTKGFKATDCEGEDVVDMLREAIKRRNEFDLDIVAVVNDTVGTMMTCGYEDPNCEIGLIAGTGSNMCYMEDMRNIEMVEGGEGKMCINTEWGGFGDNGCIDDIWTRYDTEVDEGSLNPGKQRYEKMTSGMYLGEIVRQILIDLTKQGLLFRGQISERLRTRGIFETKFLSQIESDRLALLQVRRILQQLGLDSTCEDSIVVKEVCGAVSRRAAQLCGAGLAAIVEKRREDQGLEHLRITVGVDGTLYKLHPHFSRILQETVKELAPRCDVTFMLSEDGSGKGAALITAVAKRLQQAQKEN
- experimentNotes: HKDC1 hexokinase inhibitors, dose response, biochemical, W721R variant (AID 504729)
- Type: functional
Active and inactive are the calls of the source.
Result category, one only: active, inactive

The examples below pair each entry with its known result.
COC(=O)c1ccccc1NC1=C/C(=N\S(=O)(=O)c2ccc(C(=O)O)cc2)c2ccccc2C1=O ... active
Cc1oc2c(c1C(=O)c1ccc(Cl)cc1)C(=O)C(=O)c1ccccc1-2 ... active
O=c1c2ccccc2nc(/C=C/c2cccnc2)n1Cc1ccccc1 ... active

Attention now shifts to the item below.
Exercise: Hey, what did the test say about NC(=O)C1CCN(C2=C(Cl)C(=O)c3ccccc3C2=O)CC1 ?
Solution: inactive

----------
Listing of recorded EC50 by entry.
- testTarget: Zinc finger protein mex-5 (Caenorhabditis elegans, UniProt Q9XUB2)
- Sequence (Q9XUB2 whole entry): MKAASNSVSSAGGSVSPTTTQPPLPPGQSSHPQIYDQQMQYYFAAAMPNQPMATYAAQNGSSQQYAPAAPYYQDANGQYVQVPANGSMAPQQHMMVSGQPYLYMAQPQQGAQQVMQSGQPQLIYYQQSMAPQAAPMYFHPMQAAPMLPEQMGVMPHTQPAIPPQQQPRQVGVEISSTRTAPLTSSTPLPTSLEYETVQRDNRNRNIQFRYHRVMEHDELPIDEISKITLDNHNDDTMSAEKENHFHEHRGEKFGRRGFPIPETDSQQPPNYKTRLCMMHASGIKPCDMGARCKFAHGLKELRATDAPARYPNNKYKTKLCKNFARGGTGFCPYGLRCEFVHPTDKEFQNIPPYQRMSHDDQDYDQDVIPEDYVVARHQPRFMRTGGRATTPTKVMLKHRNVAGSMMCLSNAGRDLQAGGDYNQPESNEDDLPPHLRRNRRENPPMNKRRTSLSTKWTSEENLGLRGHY
- experimentNotes: MEX-5/TCR-2 RNA interaction inhibitors, dose response, biochemical, C. elegans, fluorescence polarization (AID 1960)
Calls of active or inactive are those of the source.

N#C/C(=C/c1ccc(CNS(=O)(=O)c2ccccc2)o1)C(=O)NCc1ccccc1 ... > 300 µM (not active)

Now examine the next entry.
Exercise: # query: EC50 of entry COc1ccc(S(=O)(=O)C(C#N)c2nc3ccccc3nc2N2CCC(C)CC2)cc1 (centres undefined)
Solution: 8.74 µM (active)
